Target: PD-L1, histidine (His)-tagged
Test: AlphaScreen or HTRF; AlphaLISA kit AL356 HV/C/F (PerkinElmer), competition: biotin-conjugated PD-1 on streptavidin-coated donor beads, His-tagged PD-L1 on anti-His acceptor beads; 2 uL each of inhibitor dilution, PD-L1 (25 nM), PD-1 (25 nM) and the two beads in 10 uL; 25 °C, 90 min; IC50 from sigmoidal fit
MEASURED ATTRIBUTE: IC50 (µM)

>>> df
           substance  measured_attribute  obs_value
0  CERXNKM (peptide)                IC50        308
1  FWRXNNI (peptide)                IC50        312
